target_under_test: p38MAPKγ (MAPK12) (Homo sapiens, UniProt P53778)
Construct: purchased Life Technologies
Sequence (P53778 whole entry): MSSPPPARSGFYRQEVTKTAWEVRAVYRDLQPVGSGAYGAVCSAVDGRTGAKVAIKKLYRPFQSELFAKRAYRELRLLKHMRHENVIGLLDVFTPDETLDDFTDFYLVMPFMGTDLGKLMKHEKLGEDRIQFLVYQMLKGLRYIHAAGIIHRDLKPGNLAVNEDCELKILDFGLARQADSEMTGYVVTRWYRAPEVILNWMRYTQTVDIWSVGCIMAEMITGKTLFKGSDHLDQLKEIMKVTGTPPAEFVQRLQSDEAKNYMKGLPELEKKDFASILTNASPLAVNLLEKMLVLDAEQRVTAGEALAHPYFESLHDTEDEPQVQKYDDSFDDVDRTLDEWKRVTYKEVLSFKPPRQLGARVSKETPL
method_summary: p38 MAPKγ enzyme inhibition (Z-LYTE FRET)
Type: biochemical
condition_context: Table 2B, unit inferred; read-out: p38 MAPKγ (Enzyme Profile)
Catalogue of IC50 values

- compound: "CN(C)Cc1cccc(-n2nc(C(C)(C)C)cc2NC(=O)Nc2ccc(OCc3ccnc(Nc4cnccn4)c3)c3ccccc23)c1 [Example 261]"
  unit_spec: "µM"
  comparison_operator: "="
  IC50: 0.146
- compound: "CCc1cncc(Nc2cc(COc3ccc(NC(=O)Nc4cc(C(C)(C)C)nn4-c4cccc(Cl)c4)c4ccccc34)ccn2)n1 [Example 175]"
  unit_spec: "µM"
  comparison_operator: ">"
  IC50: 15.5
- compound: "Cc1ccc(-n2nc(C(C)(C)C)cc2NC(=O)Nc2ccc(OCc3ccnc(Nc4cnc(C(=O)N5CCC(O)CC5)cn4)c3)c3ccccc23)cc1 [Example 127]"
  unit_spec: "µM"
  comparison_operator: "="
  IC50: 0.093
- compound: "COc1ccc(-n2nc(C(C)(C)C)cc2NC(=O)Nc2ccc(OCc3ccnc(Nc4cnc(C(=O)N5CCCC5)cn4)c3)c3ccccc23)cc1F [Example 228]"
  unit_spec: "µM"
  comparison_operator: ">"
  IC50: 13.7
- compound: "COc1cc(-n2nc(C(C)(C)C)cc2NC(=O)Nc2ccc(OCc3ccnc(Nc4cnc(C(=O)N5CCCC5)cn4)c3)c3ccccc23)ccc1C [Example 226]"
  unit_spec: "µM"
  comparison_operator: ">"
  IC50: 13.8

====

Below, each entry is listed with its recorded pIC50.
target_under_test: p38MAPKγ (MAPK12) (Homo sapiens)
Construct: purchased Life Technologies
method_summary: p38 MAPKγ enzyme inhibition (Z-LYTE FRET)
Assay type: biochemical
condition_context: Table 2B, unit inferred; read-out: p38 MAPKγ (Enzyme Profile)
pIC50: −log10 of the molar value.

- smiles_code: "COc1cc(-n2nc(C(C)(C)C)cc2NC(=O)Nc2ccc(OCc3ccnc(Nc4cnc(C)c(C)n4)c3)c3ccccc23)ccc1C"
  pIC50: "< 4.82"
- smiles_code: "Cc1ncc(Nc2cc(COc3ccc(NC(=O)Nc4cc(C(C)(C)C)nn4-c4cccc(Cl)c4)c4ccccc34)ccn2)nc1C"
  pIC50: "< 4.81"
- smiles_code: "CCc1cncc(Nc2cc(COc3ccc(NC(=O)Nc4cc(C(C)(C)C)nn4-c4cc(C)cc(C)c4)c4ccccc34)ccn2)n1"
  pIC50: "< 4.81"

====

target_under_test: GSK 3α enzyme isoform (Homo sapiens, UniProt P49840)
Sequence (P49840 whole entry, canonical isoform): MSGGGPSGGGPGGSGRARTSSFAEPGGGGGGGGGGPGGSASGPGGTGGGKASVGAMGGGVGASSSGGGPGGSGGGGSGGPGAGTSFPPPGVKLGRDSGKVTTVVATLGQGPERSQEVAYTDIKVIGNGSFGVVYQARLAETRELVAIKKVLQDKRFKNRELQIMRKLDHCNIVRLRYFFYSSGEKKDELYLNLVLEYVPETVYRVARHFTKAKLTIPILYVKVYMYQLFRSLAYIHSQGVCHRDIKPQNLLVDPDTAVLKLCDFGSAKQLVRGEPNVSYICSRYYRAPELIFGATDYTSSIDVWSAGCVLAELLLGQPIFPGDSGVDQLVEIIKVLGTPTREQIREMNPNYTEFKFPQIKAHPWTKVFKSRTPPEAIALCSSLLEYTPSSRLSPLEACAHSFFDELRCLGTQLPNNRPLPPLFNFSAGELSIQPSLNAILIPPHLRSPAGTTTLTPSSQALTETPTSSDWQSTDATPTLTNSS
method_summary: GSK 3α enzyme inhibition (Z-LYTE FRET)
condition_context: Table 2A; read-out: IC50 Values for Enzyme Inhibition GSK3α
Measured IC50 by item
readout: IC50

- smiles_code: "Cc1ccc(-n2nc(C(C)(C)C)cc2NC(=O)Nc2ccc(OCc3ccnc(Nc4cnc(CO)cn4)c3)c3ccccc23)cc1"
  target_under_test: "GSK 3α enzyme isoform (Homo sapiens, UniProt P49840)"
  readout_value: "> 15.9 µM"
- smiles_code: "CNC(=O)c1cnc(Nc2cc(COc3ccc(NC(=O)Nc4cc(C(C)(C)C)nn4-c4ccc(C)cc4)c4ccccc34)ccn2)cn1"
  target_under_test: "GSK 3α enzyme isoform (Homo sapiens, UniProt P49840)"
  readout_value: "> 15.2 µM"
- smiles_code: "Cc1ccc(-n2nc(C(C)(C)C)cc2NC(=O)Nc2ccc(OCc3ccnc(Nc4cnc(C(=O)N5CCCC5)cn4)c3)c3ccccc23)cc1"
  target_under_test: "GSK 3α enzyme isoform (Homo sapiens, UniProt P49840)"
  readout_value: "> 13.8 µM"
